For each record, write down the corresponding Papp B→A at 2 h, 50 μM.
PROTOCOL_TEXT: Transport across Caco-2 cell monolayer
Assay type: in vitro ADME
TEST_CONDITIONS: human, Caco-2; 50 μM
Answer in ×10⁻⁶ cm/s, number only, no unit symbol.

Record COc1cc2c(c(OC)c1OC)-c1c(cc(OC)c(OC)c1OC)C[C@](C)(O)[C@@H](C)C2 . Reported Papp B→A at 2 h, 50 μM: 2.12

The compound identified as COc1cc2c(c(OC)c1OC)-c1c(cc(OC)c(OC)c1OC)C[C@H](C)[C@@H](C)C2 registered its Papp B→A at 2 h, 50 μM at 1.71

Lab book: Papp B→A at 2 h, 50 μM of COc1cc2c(c(OC)c1OC)-c1c(cc3c(c1OC)OCO3)C[C@H](C)[C@H](C)C2 noted as 1.32

====

PROTOCOL_TEXT: Transport across Caco-2 cell monolayer
Format: in vitro ADME
TEST_CONDITIONS: human, Caco-2; 5 μM
MEASUREMENT_TYPE: Papp B→A at 2 h, 5 μM (×10⁻⁶ cm/s)
Could you give me the number in ×10⁻⁶ cm/s? Just the number is fine.

Field Papp B→A at 2 h, 5 μM (entry CC(C)NCC(O)COc1cccc2ccccc12 (centres unmarked) [Propranolol, propranolol, reference compound] ) reads 24.6

For COc1cc2c(c(OC)c1OC)-c1c(cc(OC)c(OC)c1OC)C[C@H](C)[C@@H](C)C2 the compound record lists Papp B→A at 2 h, 5 μM as 1.67

Looking up COc1cc2c(c(OC)c1OC)-c1c(cc3c(c1OC)OCO3)C[C@H](C)[C@H](C)C2 , I see its Papp B→A at 2 h, 5 μM listed as 1.32

Papp B→A at 2 h, 5 μM for C[C@H]1O[C@@H](O[C@H]2[C@@H](O)C[C@H](O[C@H]3[C@@H](O)C[C@H](O[C@H]4CC[C@@]5(C)[C@H](CC[C@@H]6[C@@H]5C[C@@H](O)[C@]5(C)[C@@H](C7=CC(=O)OC7)CC[C@]65O)C4)O[C@@H]3C)O[C@@H]2C)C[C@H](O)[C@@H]1O [Digoxin, digoxin, reference compound] is 11.6

Lab note: COc1cc2c(c(OC)c1OC)-c1c(cc(OC)c(OC)c1OC)C[C@](C)(O)[C@@H](C)C2 gave Papp B→A at 2 h, 5 μM of 3.31

====

PROTOCOL_TEXT: In situ hepatic perfusion of four lignans
Assay type: in vivo, rat
TEST_CONDITIONS: Sprague-Dawley, rat, perfusate, pH 7.4, CCl4-intoxicated rats, perfusate AUC(0−1h), n = 3
MEASUREMENT_TYPE: AUC at 10 μM (ng·h/mL)
All answers are understood in ng·h/mL, so give the number only.

The recorded AUC at 10 μM for COc1cc2c(c(OC)c1OC)-c1c(cc(OC)c(OC)c1OC)C[C@H](C)[C@@H](C)C2 is 3620

Form: compound = COc1cc2c(c(OC)c1OC)-c1c(cc(OC)c(OC)c1OC)C[C@](C)(O)[C@@H](C)C2 ; AUC at 10 μM = 3860

What the record says about COc1cc2c(c(OC)c1OC)-c1c(cc3c(c1OC)OCO3)C[C@H](C)[C@H](C)C2 : AUC at 10 μM is 3740

====

Please respond with reported efflux ratio at 2 h, 5 μM for every item in the list.
PROTOCOL_TEXT: Transport across Caco-2 cell monolayer
Format: in vitro ADME
TEST_CONDITIONS: human, Caco-2; 5 μM, ER = Papp (BL → AP)/Papp(AP → BL)
Answer using only a numeral; do not append any unit.

Item: C[C@H]1O[C@@H](O[C@H]2[C@@H](O)C[C@H](O[C@H]3[C@@H](O)C[C@H](O[C@H]4CC[C@@]5(C)[C@H](CC[C@@H]6[C@@H]5C[C@@H](O)[C@]5(C)[C@@H](C7=CC(=O)OC7)CC[C@]65O)C4)O[C@@H]3C)O[C@@H]2C)C[C@H](O)[C@@H]1O [Digoxin, digoxin, reference compound] | efflux ratio at 2 h, 5 μM: 3.53

Form: compound = COc1cc2c(c(OC)c1OC)-c1c(cc(OC)c(OC)c1OC)C[C@](C)(O)[C@@H](C)C2 [Schisandrin, schisandrin] ; efflux ratio at 2 h, 5 μM = 1.54

Measured efflux ratio at 2 h, 5 μM, COc1cc2c(c(OC)c1OC)-c1c(cc(OC)c(OC)c1OC)C[C@H](C)[C@@H](C)C2 [Deoxyshisandrin, deoxyshisandrin] : 1.42

Lab note: measured efflux ratio at 2 h, 5 μM of COc1cc2c(c(OC)c1OC)-c1c(cc3c(c1OC)OCO3)C[C@H](C)[C@H](C)C2 [γ-Schisandrin, γ-schisandrin] was 1.13

// efflux ratio at 2 h, 5 μM lookup, compound = CC(C)NCC(O)COc1cccc2ccccc12 (centres unmarked) [Propranolol, propranolol, reference compound] , result: 0.75
